Target or system purified GAPDH enzyme from rabbit muscle (Oryctolagus cuniculus, UniProt P46406); recorded quantity IC50.

Give IC50 for the following compound: O=NN(CCCl)C(=O)NCCCl
~200 µM

Give IC50 for the following compound: CCCOC(=O)C(=O)CBr [3-BrOP, 3-bromo-2-oxopropionate-1-propyl ester]
~10 µM
